What pIC50 was measured for each of the following?
Tested on: Voltage-gated inwardly rectifying potassium channel KCNH2 (Homo sapiens, UniProt Q12809)
Sequence (Q12809 whole entry): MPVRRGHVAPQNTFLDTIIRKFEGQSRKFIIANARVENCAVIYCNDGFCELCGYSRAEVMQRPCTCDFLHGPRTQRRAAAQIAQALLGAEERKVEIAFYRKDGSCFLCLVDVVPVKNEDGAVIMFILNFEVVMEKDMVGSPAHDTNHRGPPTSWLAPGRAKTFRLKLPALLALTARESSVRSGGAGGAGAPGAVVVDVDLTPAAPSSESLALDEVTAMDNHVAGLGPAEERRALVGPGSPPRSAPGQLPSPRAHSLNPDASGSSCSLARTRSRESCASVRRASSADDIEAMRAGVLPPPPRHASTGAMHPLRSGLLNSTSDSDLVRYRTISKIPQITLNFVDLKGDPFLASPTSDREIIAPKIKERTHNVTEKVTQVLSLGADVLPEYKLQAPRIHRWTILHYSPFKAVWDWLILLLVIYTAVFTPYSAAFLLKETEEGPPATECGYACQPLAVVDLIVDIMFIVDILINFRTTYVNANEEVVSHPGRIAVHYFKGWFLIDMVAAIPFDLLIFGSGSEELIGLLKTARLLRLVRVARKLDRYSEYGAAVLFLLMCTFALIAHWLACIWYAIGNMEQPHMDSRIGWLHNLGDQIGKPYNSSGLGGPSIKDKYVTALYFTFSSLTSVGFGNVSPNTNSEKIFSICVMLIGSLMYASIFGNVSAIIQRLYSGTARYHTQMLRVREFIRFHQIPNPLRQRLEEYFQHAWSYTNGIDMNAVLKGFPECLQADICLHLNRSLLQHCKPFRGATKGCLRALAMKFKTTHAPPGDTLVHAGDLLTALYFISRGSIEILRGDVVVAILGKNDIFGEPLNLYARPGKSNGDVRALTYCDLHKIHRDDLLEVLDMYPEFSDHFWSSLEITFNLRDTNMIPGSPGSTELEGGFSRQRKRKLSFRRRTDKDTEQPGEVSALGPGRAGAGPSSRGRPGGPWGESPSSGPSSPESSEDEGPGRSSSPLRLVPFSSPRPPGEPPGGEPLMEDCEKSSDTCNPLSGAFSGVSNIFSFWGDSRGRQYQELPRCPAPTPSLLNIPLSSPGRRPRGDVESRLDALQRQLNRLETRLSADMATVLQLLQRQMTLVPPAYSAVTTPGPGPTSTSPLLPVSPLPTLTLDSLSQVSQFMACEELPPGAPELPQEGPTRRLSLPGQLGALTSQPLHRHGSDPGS
One number for each entry, as −log10 of the molar value.

State recorded pIC50 for all listed compounds.
1. CCOC(=O)[C@H]1CC[C@@H](N2CC(NC(=O)CNc3n[nH]c4ccc(C(F)(F)F)cc34)C2)CC1
2. NC(=O)Cc1ccc([C@H]2CC[C@@H](N3CC(NC(=O)CNc4n[nH]c5ccc(C(F)(F)F)cc45)C3)CC2)cc1
3. NC(=O)n1nc(NCC(=O)NC2CN([C@H]3CC[C@@H](c4ccc5c(c4)OCO5)CC3)C2)c2cc(C(F)(F)F)ccc21
4. CCOC(=O)[C@H]1CC[C@@H](N2CC(NC(=O)CNc3nn(C)c4ccc(C(F)(F)F)cc34)C2)CC1

[5.04, 5.02, 4.92, 5.10]
